Test system: CAL-27 (Oral Cavity Carcinoma)
Experiment: combination Emax (second highest fraction inhibited in the dose matrix, 72 h); higher = more inhibition; extreme values may be limits of the assay
Quantity: combination Emax

So what's the measured combination Emax for this one? Cc1cc2ncnn2cc1Nc1ncc2c(n1)n(C1CCOCC1)c(=O)n2C [AZD7648] + C=CCn1c(=O)c2cnc(Nc3ccc(N4CCN(C)CC4)cc3)nc2n1-c1cccc(C(C)(C)O)n1 [AZD1775] (first compound max 10 µM, partner max 1 µM)
0.345

So what's the measured combination Emax for this one? CCN(CCO)CCCOc1ccc2c(Nc3cc(CC(=O)Nc4cccc(F)c4)[nH]n3)ncnc2c1 [AZD2811] + O=C(c1cc(Cc2n[nH]c(=O)c3ccccc23)ccc1F)N1CCN(C(=O)C2CC2)CC1 [Olaparib] (first compound max 1 µM, 7x7, partner max 10 µM)
0.778

###

Test system: UACC-812 (Breast Carcinoma)
Assay: combination Emax (second highest fraction inhibited in the dose matrix, 72 h); higher = more inhibition; extreme values may be limits of the assay
Quantity: combination Emax
Lab note: jot the number down without any unit.

So what's the measured combination Emax for this one? Cc1c2c(nn1C)CSCc1cc(n(C)n1)CSc1cc(c3ccccc3c1)OCCCc1c(C(=O)O)n(C)c3c-2c(Cl)ccc13 [AZD5991] + CC1(C)CCC(CN2CCN(c3ccc(C(=O)NS(=O)(=O)c4ccc(NCC5CCOCC5)c([N+](=O)[O-])c4)c(Oc4cnc5[nH]ccc5c4)c3)CC2)=C(c2ccc(Cl)cc2)C1 [Venetoclax] (first compound max 1 µM, 7x7, partner max 1 µM)
0.694

So what's the measured combination Emax for this one? Cc1c2c(nn1C)CSCc1cc(n(C)n1)CSc1cc(c3ccccc3c1)OCCCc1c(C(=O)O)n(C)c3c-2c(Cl)ccc13 [AZD5991] + C1CN(CCC1(C(=O)N[C@@H](CCO)C2=CC=C(C=C2)Cl)N)C3=NC=NC4=C3C=CN4 [Capivasertib] (first compound max 1 µM, 7x7, partner max 3 µM)
0.427

###

Kindly supply the reported Bliss excess values for the records listed here.
Tested on: NB13 (Neuroblastoma);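 note: after 72 h of two-drug dosing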
Assay: Bliss excess, mean over the matrix (fraction); higher = more synergy
Lab note: jot the number down without any unit.

Request - read-out Bliss excess | tested on NB13 (Neuroblastoma) | compound CN(CCO)CC[C@H](CSc1ccccc1)Nc1ccc(S(=O)(=O)NC(=O)c2ccc(N3CCC([C@@H](O)c4ccccc4-c4ccc(Cl)cc4)CC3)cc2)cc1S(=O)(=O)C(F)(F)F [AZD4320] + C1CN(CCC1(C(=O)N[C@@H](CCO)C2=CC=C(C=C2)Cl)N)C3=NC=NC4=C3C=CN4 [Capivasertib] (first compound max 1 µM, 7x7, partner max 3 µM);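 note: after 72 h of two-drug dosing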
0.0174

Request - read-out Bliss excess | tested on NB13 (Neuroblastoma) | compound CN(CCO)CC[C@H](CSc1ccccc1)Nc1ccc(S(=O)(=O)NC(=O)c2ccc(N3CCC([C@@H](O)c4ccccc4-c4ccc(Cl)cc4)CC3)cc2)cc1S(=O)(=O)C(F)(F)F [AZD4320] + C[C@@H](Nc1cc(F)cc(F)c1)c1cc(C(=O)N(C)C)cc2c(=O)cc(N3CCOCC3)oc12 [AZD8186] (first compound max 1 µM, 7x7, partner max 3 µM);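 note: after 72 h of two-drug dosing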
0.0205

Request - read-out Bliss excess | tested on NB13 (Neuroblastoma) | compound Cc1c2c(nn1C)CSCc1cc(n(C)n1)CSc1cc(c3ccccc3c1)OCCCc1c(C(=O)O)n(C)c3c-2c(Cl)ccc13 [AZD5991] + CCN(CCO)CCCOc1ccc2c(Nc3cc(CC(=O)Nc4cccc(F)c4)[nH]n3)ncnc2c1 [AZD2811] (first compound max 1 µM, 7x7, partner max 1 µM);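 note: after 72 h of two-drug dosing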
0.131

Request - read-out Bliss excess | tested on NB13 (Neuroblastoma) | compound COc1cccc(OCCCN)c1-c1cc(Nc2cnc(C#N)cn2)n[nH]1 [Prexasertib] + CN(C)CCCOc1ccc(-c2ccc3ncc4c(c3c2)n(C2CCOCC2)c(=O)n4C)cn1 [AZD0156] (first compound max 1 µM, 7x7, partner max 1 µM);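 note: after 72 h of two-drug dosing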
-0.0268

Request - read-out Bliss excess | tested on NB13 (Neuroblastoma) | compound CCc1c2c(nc3ccc(O)cc13)-c1cc3c(c(=O)n1C2)COC(=O)[C@]3(O)CC [SN-38] + CN(C)CCCOc1ccc(-c2ccc3ncc4c(c3c2)n(C2CCOCC2)c(=O)n4C)cn1 [AZD0156] (first compound max 0.3 µM, 7x7, partner max 1 µM);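 note: after 72 h of two-drug dosing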
0.0313
